- TESTED_SYSTEM: T1, full length human PD-L1 on cells (human, UniProt Q9NZQ7 19-290)
- T1 construct: Also used as the target of the cell-based functional assays (transfected stimulator cells; PD-L1 of the cells in the mixed lymphocyte reaction); also called CHO-K1-hPD-L1; CHOK1-hPD-L1
- T1 sequence (Q9NZQ7 19-290 limits assumed): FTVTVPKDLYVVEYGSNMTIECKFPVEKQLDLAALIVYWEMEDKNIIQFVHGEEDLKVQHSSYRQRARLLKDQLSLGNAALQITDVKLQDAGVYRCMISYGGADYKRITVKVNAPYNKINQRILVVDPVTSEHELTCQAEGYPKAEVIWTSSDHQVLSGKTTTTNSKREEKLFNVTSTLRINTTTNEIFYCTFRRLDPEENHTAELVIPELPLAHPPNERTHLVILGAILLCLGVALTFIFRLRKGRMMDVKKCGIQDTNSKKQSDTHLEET
- TEST_SUMMARY: FACS CHO-K1-hPD-L1, 100.00 nM mAb
READOUT_KIND: Mean fluorescence intensity

Looking up chimeric anti-PD-L1 antibody 78A11F6 (antibody, V domains shown, Purified from hybridoma of Harbour H2L2 mice: human variable regions, rat constant regions) VH: EVQLVESGGGLVQPGGSLRLSCAASGITFSSYWMSWVRQTPGKGLEWVANIKQDGSEKYYVKSVKGRFTISRDNAKNSLYLQMNSLRAEDTAVYYCVRDRAVPGTGAFDIWGQGTMVIVSS VL: DIQMTQSPSTLSASVGDRVTITCRASQSISNWLAWYQQKPGKAPKLLIYKASSLESGVPSRFSGSGSGTEFTLTISSLQPDDFATYYCQQYDSSLFTFGQGTKLEIK , I see its Mean fluorescence intensity listed as 232
